Measured values drawn from paper PMC6409085 for this set.

- TARGET OR SYSTEM: SfurOBP11 (Sogatella furcifera)
- Sequence (V5T6E3 entry or part of it): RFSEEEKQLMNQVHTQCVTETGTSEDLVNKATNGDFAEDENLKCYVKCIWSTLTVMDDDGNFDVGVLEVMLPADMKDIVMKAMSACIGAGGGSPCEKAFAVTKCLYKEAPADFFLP
- TEST SUMMARY: biochemical
- Format: binding
- Procedure: Thirty-six rice odorants ([He et al., 2014]; [Wang et al., 2017]) and 1-N-phenyl-naphthylamine (1-NPN) were purchased from Sigma-Aldrich (St Louis, MO, USA). […] Fluorescence competitive binding assays were performed on Tecan Spark 10M (Tecan Group Ltd., Männedorf, Switzerland) with the F96 Black ELIAS Plate (Sangon) ([Khuhro et al., 2017]; [Liu et al., 2017]). The solutions were excited at 337 nm and emission spectra were recorded between 390 and 490 nm. […]
REPORTED PROPERTY: IC50

1. C=C1CC/C=C(\C)CC[C@@H]2[C@@H]1CC2(C)C
> 20 µM
2. c1ccc2ccccc2c1
> 20 µM
3. Cc1ccc(C(C)C)cc1
> 20 µM
4. CC1=CC[C@@H](C(C)(C)O)CC1
> 20 µM
5. CC(=O)/C=C/C1=C(C)CCCC1(C)C
19.9 µM
6. OC1CCCCC1
> 20 µM
